Value source: patent US20060014790A1

# experimental-system: catD / beta-secretase (BACE)
# assay-method-text: CatD/BACE selectivity (ratio of IC50 values)
# Format: biochemical
# condition-set: each value is an average of four experimental runs; multiple values = more than one experiment
I'd appreciate it if you could supply IC50 catD/IC50 BACE values for the items below.
Numbers only.

// known answers, use as guide
{"compound": "CC(=O)NC(Cc1cc(F)cc(F)c1)C(O)CNC1(c2cccc(C(C)(C)C)c2)CCC(C#N)CC1 (stereo not shown) [Example 196A-48]", "experimental-system": "catD / beta-secretase (BACE)", "attribute-measured": "IC50 catD/IC50 BACE", "measurement": 1.7}
{"compound": "CC(=O)NC(Cc1cc(F)cc(F)c1)C(O)CNC1(c2cccc(C(C)(C)C)c2)CCC([S+](C)[O-])CC1 (stereo not shown) [196A-34 Mix]", "experimental-system": "catD / beta-secretase (BACE)", "attribute-measured": "IC50 catD/IC50 BACE", "measurement": 2.1}
{"compound": "CC(=O)NC(Cc1cc(F)cc(F)c1)C(O)CNC1(c2cccc(C(C)(C)C)c2)CCC(NS(C)(=O)=O)CC1 (single isomer, unassigned) [196A-41 Diastereomer A]", "experimental-system": "catD / beta-secretase (BACE)", "attribute-measured": "IC50 catD/IC50 BACE", "measurement": 18.1}
{"compound": "CC(=O)NC1CCC(NCC(O)C(Cc2cc(F)cc(F)c2)NC(C)=O)(c2cccc(C(C)(C)C)c2)CC1 (single isomer, unassigned) [196A-33 Diastereomer A]", "experimental-system": "catD / beta-secretase (BACE)", "attribute-measured": "IC50 catD/IC50 BACE", "measurement": 34.4}
{"compound": "CC(=O)NC(Cc1cc(F)cc(F)c1)C(O)CNC1(c2cccc(C(C)(C)C)c2)CCC(NC=O)CC1 (single isomer, unassigned) [196A-43 Diastereomer A]", "experimental-system": "catD / beta-secretase (BACE)", "attribute-measured": "IC50 catD/IC50 BACE", "measurement": 84.5}

# batch size: 6; output IC50 catD/IC50 BACE per entry
1. CC(=O)NC(Cc1cc(F)cc(F)c1)C(O)CNC1(c2cccc(C(C)(C)C)c2)CCC(C(F)(F)F)CC1 (single isomer, unassigned) [196A-32 Diastereomer A]
2. CC(=O)NC(Cc1cc(F)cc(F)c1)C(O)CNC1(c2cccc(C(C)C)c2)CCN(C=O)CC1 (stereo not shown) [Example 196A-13]
3. CC(=O)NC(Cc1cc(F)cc(F)c1)C(O)CNC1(c2cccc(-c3ccsc3)c2)CCC(=O)CC1 (stereo not shown) [Example 196A-19]
4. CC(=O)NC(Cc1cc(F)cc(F)c1)C(O)CNC1(c2cccc(C(C)C)c2)CCN(C(C)=O)CC1 (stereo not shown) [Example 196A-10]
5. CC(=O)NC(Cc1cc(F)cc(F)c1)C(O)CNC1(c2cccc(C(C)C)c2)CCS(=O)(=O)CC1 (stereo not shown) [Example 196A-9]
6. COC(=O)NC1CCC(NCC(O)C(Cc2cc(F)cc(F)c2)NC(C)=O)(c2cccc(C(C)(C)C)c2)CC1 (single isomer, unassigned) [196A-37 Diastereomer A]

Outgoing:
1: 1.7; 2: 33.5; 3: 4.4; 4: 3.2; 5: 1.4; 6: 7.7

Please report IC50 catD/IC50 BACE for every entry that follows.
1. CC(=O)NC(Cc1cc(F)cc(F)c1)C(O)CNC1(c2cccc(C(C)C)c2)CCN(C(=O)C(F)(F)F)CC1 (stereo not shown) [Example 196A-12]
2. CC(=O)NC(Cc1cc(F)cc(F)c1)C(O)CNC1(c2cccc(Br)c2)CCC2(CC1)OCCO2 (stereo not shown) [Example 196A-47]
3. CCS(=O)(=O)N1CCC(NCC(O)C(Cc2cc(F)cc(F)c2)NC(C)=O)(c2cccc(C(C)(C)C)c2)CC1 (stereo not shown) [Example 196A-15]

Outgoing:
1: 1.1; 2: 1.7; 3: 13.1

Incoming: Quick check: IC50 catD/IC50 BACE of CONC1CCC(NCC(O)C(Cc2cc(F)cc(F)c2)NC(C)=O)(c2cccc(C(C)(C)C)c2)CC1 (single isomer, unassigned) [196A-20 Diastereomer A] ?
Outgoing: 5.0

---

# assay-method-text: Brain uptake (brain penetration after IV administration)
# condition-set: CF-1, mouse, in vivo, 10 μmol/kg
attribute-measured: Kp at 10 min
Give bare numbers.

Need Kp at 10 min for each of these compounds.
1. CC(=O)NC(Cc1cc(F)cc(F)c1)C(O)CNC1(c2cccc(-c3ccsc3)c2)CCCCC1 (stereo not drawn)
2. CC(=O)NC(Cc1cc(F)cc(F)c1)C(O)CNC1(c2cccc(C(C)C)c2)CCC(=O)CC1 (stereo not drawn)
3. CC(=O)NC(Cc1cc(F)cc(F)c1)C(O)CNC1(c2cccc(C(C)(C)C)c2)CCCCC1 (stereo not drawn)

Outgoing:
3.7
8.4
3

---

# assay-method-text: Oral bioavailability after IV and PO administration
# Type: in vivo
# condition-set: male, Sprague-Dawley, rat, plasma, read-out: Rat % F
attribute-measured: bioavailability (%)
Give bare numbers, in %.

Incoming: What value of measured bioavailability is listed for CC(=O)NC(Cc1cc(F)cc(F)c1)C(O)CNC1(c2cccc(C(C)(C)C)c2)CCCCC1 (stereo not shown) [Example 197-1] ?
Outgoing: 20.2

---

# experimental-system: catE / beta-secretase (BACE)
# assay-method-text: CatE/BACE selectivity (ratio of IC50 values)
# Type: biochemical
# condition-set: each value is an average of four experimental runs; multiple values = more than one experiment
attribute-measured: IC50 catE/IC50 BACE

{"compound": "CC(=O)NC(Cc1cc(F)cc(F)c1)C(O)CNC1(c2cccc(C(C)(C)C)c2)CCN(CCC#N)CC1 (stereo not drawn) [Example 196B-26]", "IC50 catE/IC50 BACE": 1.8}
{"compound": "CC(=O)NC(Cc1cc(F)cc(F)c1)C(O)CNC1(c2cccc(-c3ccsc3)c2)CCC(=O)CC1 (stereo not drawn) [Example 196B-10]", "IC50 catE/IC50 BACE": 5.6}
{"compound": "CNC1CCC(NCC(O)C(Cc2cc(F)cc(F)c2)NC(C)=O)(c2cccc(C(C)(C)C)c2)CC1 (single isomer, unassigned) [196B-16 Diastereomer A]", "IC50 catE/IC50 BACE": ">4.7"}
{"compound": "CC(=O)NC(Cc1cc(F)cc(F)c1)C(O)CNC1(c2cccc(C(C)(C)C)c2)CCC(N)CC1 (single isomer, unassigned) [196B-19 Diastereomer B]", "IC50 catE/IC50 BACE": ">8.4"}
{"compound": "CC(=O)NC(Cc1cc(F)cc(F)c1)C(O)CNC1(c2cccc(C(C)(C)C)c2)CCCN(C)C1 (stereo not drawn) [Example 196B-32]", "IC50 catE/IC50 BACE": ">2,0"}

Incoming: Name the reported IC50 catE/IC50 BACE value associated with the compound CC(=O)NC(Cc1cc(F)cc(F)c1)C(O)CNC1(c2cccc(C(C)(C)C)c2)CCC(N)CC1 (single isomer, unassigned) [196B-18 Diastereomer A]
Outgoing: >8.4

---

# experimental-system: catE / beta-secretase (BACE)
# assay-method-text: CatE/BACE selectivity (ratio of IC50 values)
# Type: biochemical
# condition-set: each value is an average of four experimental runs; multiple values = more than one experiment
For each record, write down the corresponding IC50 catE/IC50 BACE.
Give bare numbers.

{"molecule": "CC(=O)NC(Cc1cc(F)cc(F)c1)C(O)CNC1(c2cccc(C(C)(C)C)c2)CCC([S+](C)[O-])CC1 (single isomer, unassigned) [196B-24 Diastereomer B]", "experimental-system": "catE / beta-secretase (BACE)", "measurement": 3.0}

Fill in IC50 catE/IC50 BACE for each of the 6 molecules listed.
1. CONC1CCC(NCC(O)C(Cc2cc(F)cc(F)c2)NC(C)=O)(c2cccc(C(C)(C)C)c2)CC1 (single isomer, unassigned) [196B-12 Diastereomer B]
2. CC(=O)NC(Cc1cc(F)cc(F)c1)C(O)CNC1(c2cccc(C(C)(C)C)c2)CCC(C(F)(F)F)CC1 (single isomer, unassigned) [196B-21 Diastereomer A]
3. CC(=O)NC(Cc1cc(F)cc(F)c1)C(O)CNC1(c2cccc(Br)c2)CCC2(CC1)OCCO2 (stereo not drawn) [Example 196B-40]
4. CC(=O)NC(Cc1cc(F)cc(F)c1)C(O)CNC1(c2cccc(C(C)C)c2)CCC(=O)CC1 (stereo not drawn) [Example 196B-2]
5. CNC1CCC(NCC(O)C(Cc2cc(F)cc(F)c2)NC(C)=O)(c2cccc(C(C)(C)C)c2)CC1 (single isomer, unassigned) [196B-17 Diastereomer B]
6. CONC1CCC(NCC(O)C(Cc2cc(F)cc(F)c2)NC(C)=O)(c2cccc(C(C)(C)C)c2)CC1 (single isomer, unassigned) [196B-11 Diastereomer A]

Outgoing:
[12.5, 6.4, 2.8, 3.7, 1.8, 7.4]
